Tested on: LNCaP
Test: Cytotoxicity against human LnCap cells after 4 days by MTT assay
Assay type: functional, cell-based
Conditions: 96 h
measured.property: IC50

Answered cases to consult:
# compound, IC50
data = [
    ("COc1cccc2c(=O)c3c(O)cc(OCC4CO4)cc3oc12 (stereo not drawn)", "> 100 µM"),
    ("O=c1c2ccccc2oc2cc(OCC3CO3)cc(O)c12 (stereo not drawn)", "93.1 µM"),
    ("COc1cccc2c1C(=O)c1c(O)c3c(c(O)c1C2=O)C[C@@](O)(C(=O)CO)C[C@@H]3O[C@H]1C[C@H](N)[C@H](O)[C@H](C)O1", "4.6 µM"),
    ("COc1cccc2c(=O)c3c(O)cc(OCC(O)CCl)cc3oc12 (stereo not drawn)", "> 100 µM"),
    ("COc1cccc2c(=O)c3c(O)cc(OCC(O)CBr)cc3oc12 (stereo not drawn)", "> 100 µM"),
    ("O=c1c2ccccc2oc2cc(OCC(O)CBr)cc(O)c12 (stereo not drawn)", "64.4 µM"),
]

get_value(item= O=c1c2ccccc2oc2cc(OCC3CO3)cc(OCC3CO3)c12 (stereo not drawn) , readout=IC50) returns 9 µM

get_value(item= O=c1c2ccccc2oc2cc(OCC(O)CCl)cc(O)c12 (stereo not drawn) , readout=IC50) returns > 100 µM
